The entries below come with measured IC50 values attached.
target: CDK2 (Homo sapiens, UniProt P24941); assay: Inhibition of CDK2 (CDK inhibition assay); format: biochemical; details: values in nM; read-out: IC50 ± SD CDK2

Example entries and their recorded answers appear below.
{"Compound": "CC(O)CNS(=O)(=O)c1ccc(Nc2nc(OCC3CCCCC3)c3nc[nH]c3n2)cc1 (centres unmarked)", "IC50": "5 nM"}
{"Compound": "CCNC(=O)c1ccc(Nc2nc(OCC3CCCCC3)c3nc[nH]c3n2)cc1", "IC50": "> 100 nM"}
{"Compound": "CC(C)CNS(=O)(=O)c1ccc(Nc2nc(OCC3CCCCC3)c3nc[nH]c3n2)cc1", "IC50": "69 nM"}
{"Compound": "NC(=O)Cc1ccc(Nc2nc(OCC3CCCCC3)c3nc[nH]c3n2)cc1", "IC50": "132 nM"}
{"Compound": "O=S(=O)(NCC(O)CO)c1ccc(Nc2nc(OCC3CCCCC3)c3nc[nH]c3n2)cc1 (centres unmarked)", "IC50": "5 nM"}

Let me know recorded IC50 for CC1CCCCC1COc1nc(Nc2ccc(S(N)(=O)=O)cc2)nc2[nH]cnc12 (centres unmarked) , thanks.
4 nM

Let me know recorded IC50 for O=S(=O)(Nc1ccccn1)c1ccc(Nc2nc(OCC3CCCCC3)c3nc[nH]c3n2)cc1 , thanks.
27 nM

Let me know recorded IC50 for NS(=O)(=O)c1ccc(Nc2nc(OCC3CCCC3)c3nc[nH]c3n2)cc1 , thanks.
7 nM

Let me know recorded IC50 for CCNS(=O)(=O)c1ccc(Nc2nc(OCC3CCCCC3)c3nc[nH]c3n2)cc1 , thanks.
8 nM

Let me know recorded IC50 for O=S(=O)(NCCO)c1ccc(Nc2nc(OCC3CCCCC3)c3nc[nH]c3n2)cc1 , thanks.
4 nM

Let me know recorded IC50 for O=S(=O)(Nc1nccs1)c1ccc(Nc2nc(OCC3CCCCC3)c3nc[nH]c3n2)cc1 , thanks.
24 nM

Let me know recorded IC50 for O=S(=O)(NCC1CCCO1)c1ccc(Nc2nc(OCC3CCCCC3)c3nc[nH]c3n2)cc1 (centres unmarked) , thanks.
7 nM

Let me know recorded IC50 for NS(=O)(=O)c1ccc(Nc2nc(OCC3CC=CCC3)c3nc[nH]c3n2)cc1 (centres unmarked) , thanks.
10 nM

Let me know recorded IC50 for CCCNC(=O)c1ccc(Nc2nc(OCC3CCCCC3)c3nc[nH]c3n2)cc1 , thanks.
~100 nM

Let me know recorded IC50 for O=S(=O)(NC1CC1)c1ccc(Nc2nc(OCC3CCCCC3)c3nc[nH]c3n2)cc1 , thanks.
8 nM

Let me know recorded IC50 for Cc1cc(NS(=O)(=O)c2ccc(Nc3nc(OCC4CCCCC4)c4nc[nH]c4n3)cc2)nc(C)n1 , thanks.
33 nM

Let me know recorded IC50 for CCCNS(=O)(=O)c1ccc(Nc2nc(OCC3CCCCC3)c3nc[nH]c3n2)cc1 , thanks.
17 nM

Let me know recorded IC50 for O=S(=O)(NCC(F)(F)F)c1ccc(Nc2nc(OCC3CCCCC3)c3nc[nH]c3n2)cc1 , thanks.
51 nM

Let me know recorded IC50 for C[C@H](O)CNS(=O)(=O)c1ccc(Nc2nc(OCC3CCCCC3)c3nc[nH]c3n2)cc1 , thanks.
6 nM

Let me know recorded IC50 for COCCNS(=O)(=O)c1ccc(Nc2nc(OCC3CCCCC3)c3nc[nH]c3n2)cc1 , thanks.
6 nM

---

Target: CDK2 (Homo sapiens)
Assay: Inhibition of CDK2 (CDK inhibition assay)
Type: biochemical
Settings: values given in μM; read-out: IC50 ± SD CDK2
Excerpt: Assays are available for testing the inhibitory activity of the compounds of interest against a range of CDK/cyclin complexes, including CDK1/cyclin A, CDK1/cyclin B, CDK1/cyclin F, CDK2/cyclin A, CDK2/cyclin E, CDK4/cyclin D, CDK5/35 and CDK6/cyclin D3. Apart from reference compounds, the compounds listed are accompanied by an NU reference or identification code number. By way of example, however, a typical protocol is summarised below.
Measured metric: IC50 (µM)
Please state the figure in µM; there is no need to write the unit.

{"Record smiles": "CNC(=O)c1ccc(Nc2nc(OCC3CCCCC3)c3nc[nH]c3n2)cc1", "IC50, µM": 0.3}
{"Record smiles": "O=S(=O)(Nc1cccc(Cl)c1)c1ccc(Nc2nc(OCC3CCCCC3)c3nc[nH]c3n2)cc1", "IC50, µM": 5.7}
{"Record smiles": "N#CCc1ccc(Nc2nc(OCC3CCCCC3)c3nc[nH]c3n2)cc1", "IC50, µM": 0.3}
{"Record smiles": "CC(=O)c1ccc(Nc2nc(OCC3CCCCC3)c3nc[nH]c3n2)cc1", "IC50, µM": 0.3}
{"Record smiles": "CN(C)C(=O)c1ccc(Nc2nc(OCC3CCCCC3)c3nc[nH]c3n2)cc1", "IC50, µM": 0.2}

Let me know recorded IC50 for O=S(=O)(Nc1ccccc1)c1ccc(Nc2nc(OCC3CCCCC3)c3nc[nH]c3n2)cc1 , thanks.
0.2

Let me know recorded IC50 for O=S(=O)(NCc1ccccc1)c1ccc(Nc2nc(OCC3CCCCC3)c3nc[nH]c3n2)cc1 , thanks.
0.2

---

The entries below come with measured IC50 values attached.
Target: p34 cdc2(CDK1)/cyclinB
Experiment: CDK assay: histone H1 phosphorylation with [32P]ATP by cdc2/cyclinB kinase
Format: biochemical, starfish (Marthasterias glacialis)
Settings: values given in μM; read-out: IC50 ± SD CDK1
Excerpt: Assays are available for testing the inhibitory activity of the compounds of interest against a range of CDK/cyclin complexes, including CDK1/cyclin A, CDK1/cyclin B, CDK1/cyclin F, CDK2/cyclin A, CDK2/cyclin E, CDK4/cyclin D, CDK5/35 and CDK6/cyclin D3. […] By way of example, however, a typical protocol is summarised below. […]

Example entries and their recorded answers appear below.
{"Record smiles": "Fc1ccc(Nc2nc(OCC3CCCCC3)c3nc[nH]c3n2)cc1Cl", "Measured metric": "IC50", "Result": "~10 µM"}
{"Record smiles": "CC(=O)c1ccc(Nc2nc(OCC3CCCCC3)c3nc[nH]c3n2)cc1", "Measured metric": "IC50", "Result": "0.5 µM"}
{"Record smiles": "COC(=O)c1ccc(Nc2nc(OCC3CCCCC3)c3nc[nH]c3n2)cc1", "Measured metric": "IC50", "Result": "~10 µM"}

From here, focus on the item given below.
Let me know recorded IC50 for Fc1cccc(Nc2nc(OCC3CCCCC3)c3nc[nH]c3n2)c1 , thanks.
~10 µM

---

molecular target: CDK2 (Homo sapiens, UniProt P24941); assay: Inhibition of CDK2 (CDK inhibition assay); format: biochemical; details: values given in μM; read-out: IC50 ± SD CDK2
Measured metric: IC50

Example entries and their recorded answers appear below.
{"Record smiles": "Fc1ccc(Nc2nc(OCC3CCCCC3)c3nc[nH]c3n2)cc1Cl", "IC50": "~10 µM"}
{"Record smiles": "COC(=O)c1ccc(Nc2nc(OCC3CCCCC3)c3nc[nH]c3n2)cc1", "IC50": "~10 µM"}

Let me know recorded IC50 for Fc1cccc(Nc2nc(OCC3CCCCC3)c3nc[nH]c3n2)c1 , thanks.
~10 µM

Let me know recorded IC50 for Fc1ccc(Nc2nc(OCC3CCCCC3)c3nc[nH]c3n2)cc1 , thanks.
> 10 µM

Let me know recorded IC50 for CSc1ccc(Nc2nc(OCC3CCCCC3)c3nc[nH]c3n2)cc1 , thanks.
> 10 µM

Let me know recorded IC50 for CCc1cccc(Nc2nc(OCC3CCCCC3)c3nc[nH]c3n2)c1 , thanks.
> 10 µM
